Molecular target: Protein farnesyltransferase (Homo sapiens, UniProt P49354+P49356)
Experiment: In vitro inhibitory activity against farnesyltransferase (FT)
Assay endpoint: IC50 (nM)

| Compound | Assay target | Value unit | Quantitative result |
| --- | --- | --- | --- |
| Cn1cncc1C(OCc1c(-c2cccc(F)c2F)cc(C#N)c(=O)n1C)c1ccc(C#N)cc1 (stereo unspecified) | Protein farnesyltransferase (Homo sapiens, UniProt P49354+P49356) | nM | 6.3 |
| Cn1cncc1C(OCc1c(-c2cc(Cl)cc(Cl)c2)cc(C#N)c(=O)n1C)c1ccc(C#N)cc1 (stereo unspecified) | Protein farnesyltransferase (Homo sapiens, UniProt P49354+P49356) | nM | 0.46 |
| Cn1cncc1C(OCc1c(-c2cc(F)cc(F)c2)cc(C#N)c(=O)n1C)c1ccc(C#N)cc1 (stereo unspecified) | Protein farnesyltransferase (Homo sapiens, UniProt P49354+P49356) | nM | 0.84 |
| Cn1cncc1C(OCc1c(-c2cccc(Cl)c2)cc(C#N)c(=O)n1CC1CC1)c1ccc(C#N)cc1 (stereo unspecified) | Protein farnesyltransferase (Homo sapiens, UniProt P49354+P49356) | nM | 0.5 |
| Cn1cncc1C(OCc1c(-c2cccc(OC(F)(F)F)c2)cc(C#N)c(=O)n1C)c1ccc(C#N)cc1 (stereo unspecified) | Protein farnesyltransferase (Homo sapiens, UniProt P49354+P49356) | nM | 0.42 |
| Cn1cncc1C(OCc1c(-c2cccc(Cl)c2)cc(C#N)c(=O)n1C)c1ccc(C#N)c(-c2cccc(Cl)c2)c1 (stereo unspecified) | Protein farnesyltransferase (Homo sapiens, UniProt P49354+P49356) | nM | 1 |
| Cn1cncc1C(OCc1c(-c2ccc(OC(F)(F)F)cc2)cc(C#N)c(=O)n1C)c1ccc(C#N)c(Br)c1 (stereo unspecified) | Protein farnesyltransferase (Homo sapiens, UniProt P49354+P49356) | nM | 0.89 |
| COc1cccc(-c2cc(C#N)c(=O)n(C)c2COC(c2ccc(C#N)cc2)c2cncn2C)c1 (stereo unspecified) | Protein farnesyltransferase (Homo sapiens, UniProt P49354+P49356) | nM | 0.41 |
| Cn1cncc1C(OCc1c(-c2cc(F)ccc2F)cc(C#N)c(=O)n1C)c1ccc(C#N)cc1 (stereo unspecified) | Protein farnesyltransferase (Homo sapiens, UniProt P49354+P49356) | nM | 2.7 |
| Cn1cncc1C(OCc1c(-c2cccc(Cl)c2)cc(C#N)c(=O)n1C)c1ccc(C#N)c(Cl)c1 (stereo unspecified) | Protein farnesyltransferase (Homo sapiens, UniProt P49354+P49356) | nM | 0.97 |
| Cn1cncc1C(OCc1c(-c2ccc(OC(F)(F)F)cc2)cc(C#N)c(=O)n1C)c1ccc(C#N)c(-c2cccc(Cl)c2)c1 (stereo unspecified) | Protein farnesyltransferase (Homo sapiens, UniProt P49354+P49356) | nM | 1.3 |

====

Target: Protein farnesyltransferase (Homo sapiens, UniProt P49354+P49356)
Assay: In vitro effective concentration against farnesyltransferase (FT)
Format: protein-complex assay
pEC50: −log10 of the molar value.
Parameter: pEC50. Scope: all listed entries.

| Molecule | Assay target | Inequality symbol | pEC50 |
| --- | --- | --- | --- |
| Cn1c(COC(c2ccc(C#N)cc2)c2cncs2)c(-c2cc(Cl)cc(Cl)c2)cc(C#N)c1=O (stereo unspecified) | Protein farnesyltransferase (Homo sapiens, UniProt P49354+P49356) | < | 7.00 |
| Cn1cncc1C(OCc1c(-c2ccc(OC(F)(F)F)cc2)cc(C#N)c(=O)n1C)c1ccc(C#N)c(-c2ccccc2Cl)c1 (stereo unspecified) | Protein farnesyltransferase (Homo sapiens, UniProt P49354+P49356) | < | 7.00 |
| Cn1cncc1C(OCc1c(-c2ccc(OC(F)(F)F)cc2)cc(C#N)c(=O)n1C)c1ccc(C#N)c(-c2ccc(Cl)cc2)c1 (stereo unspecified) | Protein farnesyltransferase (Homo sapiens, UniProt P49354+P49356) | < | 7.00 |
| Cn1cncc1C(OCc1[nH]c(=O)c(C#N)cc1-c1cccc(Cl)c1)c1ccc(C#N)cc1 (stereo unspecified) | Protein farnesyltransferase (Homo sapiens, UniProt P49354+P49356) | < | 7.00 |
| Cn1cncc1C(OCc1c(-c2ccc(OC(F)(F)F)cc2)cc(C#N)c(=O)n1C)c1ccc(C#N)c(-c2cccc(Cl)c2)c1 (stereo unspecified) | Protein farnesyltransferase (Homo sapiens, UniProt P49354+P49356) | < | 7.00 |
| Cn1cncc1C(OCc1c(-c2cccc(OC(F)(F)F)c2)cc(C#N)c(=O)n1C)c1ccc(C#N)cc1 (stereo unspecified) | Protein farnesyltransferase (Homo sapiens, UniProt P49354+P49356) | = | 8.41 |
| Cn1cncc1C(OCc1c(-c2ccc(F)cc2F)cc(C#N)c(=O)n1C)c1ccc(C#N)cc1 (stereo unspecified) | Protein farnesyltransferase (Homo sapiens, UniProt P49354+P49356) | < | 7.00 |
| CCCn1c(COC(c2ccc(C#N)cc2)c2cncn2C)c(-c2cccc(Cl)c2)cc(C#N)c1=O (stereo unspecified) | Protein farnesyltransferase (Homo sapiens, UniProt P49354+P49356) | = | 7.92 |
| Cn1cncc1C(OCc1c(-c2ccc(F)c(F)c2)cc(C#N)c(=O)n1C)c1ccc(C#N)cc1 (stereo unspecified) | Protein farnesyltransferase (Homo sapiens, UniProt P49354+P49356) | = | 8.00 |
| Cn1cncc1C(OCc1c(-c2cccc(Cl)c2)cc(C#N)c(=O)n1C)c1ccc(C#N)c(I)c1 (stereo unspecified) | Protein farnesyltransferase (Homo sapiens, UniProt P49354+P49356) | = | 7.06 |
| Cn1cncc1C(OCc1c(-c2cccc(Cl)c2)cc(C#N)c(=O)n1C)c1ccc(C#N)c(-c2cccc(Cl)c2)c1 (stereo unspecified) | Protein farnesyltransferase (Homo sapiens, UniProt P49354+P49356) | = | 7.68 |
| Cn1cncc1C(OCc1c(-c2cc(Cl)cc(Cl)c2)cc(C#N)c(=O)n1C)c1ccc(C#N)c(I)c1 (stereo unspecified) | Protein farnesyltransferase (Homo sapiens, UniProt P49354+P49356) | < | 7.00 |
| COc1cccc(-c2cc(C#N)c(=O)n(C)c2COC(c2ccc(C#N)cc2)c2cncn2C)c1 (stereo unspecified) | Protein farnesyltransferase (Homo sapiens, UniProt P49354+P49356) | = | 8.33 |
| Cn1cncc1C(OCc1c(-c2cccc(Cl)c2)cc(C#N)c(=O)n1CC1CC1)c1ccc(C#N)cc1 (stereo unspecified) | Protein farnesyltransferase (Homo sapiens, UniProt P49354+P49356) | = | 8.32 |
| Cn1cncc1C(OCc1c(-c2cc(Cl)cc(Cl)c2)cc(C#N)c(=O)n1C)c1ccc(C#N)c(Br)c1 (stereo unspecified) | Protein farnesyltransferase (Homo sapiens, UniProt P49354+P49356) | < | 7.00 |
| Cn1cncc1C(OCc1c(-c2ccc(OC(F)(F)F)cc2)cc(C#N)c(=O)n1C)c1ccc(C#N)c(Br)c1 (stereo unspecified) | Protein farnesyltransferase (Homo sapiens, UniProt P49354+P49356) | = | 8.00 |
| Cn1cncc1C(OCc1c(-c2cccc(Br)c2)cc(C#N)c(=O)n1C)c1ccc(C#N)cc1 (stereo unspecified) | Protein farnesyltransferase (Homo sapiens, UniProt P49354+P49356) | = | 8.68 |
| Cn1cncc1C(OCc1c(-c2cc(F)cc(Cl)c2)cc(C#N)c(=O)n1C)c1ccc(C#N)cc1 (stereo unspecified) | Protein farnesyltransferase (Homo sapiens, UniProt P49354+P49356) | = | 7.77 |
| Cn1cncc1C(OCc1c(-c2cc(Cl)cc(Cl)c2)cc(C#N)c(=O)n1C)c1ccc(C#N)c(Cl)c1 (stereo unspecified) | Protein farnesyltransferase (Homo sapiens, UniProt P49354+P49356) | = | 7.80 |
| Cn1cncc1C(OCc1c(-c2ccc3c(c2)OC(F)(F)O3)cc(C#N)c(=O)n1C)c1ccc(C#N)cc1 (stereo unspecified) | Protein farnesyltransferase (Homo sapiens, UniProt P49354+P49356) | = | 7.72 |
| CCOc1cccc(-c2cc(C#N)c(=O)n(C)c2COC(c2ccc(C#N)cc2)c2cncn2C)c1 (stereo unspecified) | Protein farnesyltransferase (Homo sapiens, UniProt P49354+P49356) | = | 9.09 |
| CCn1c(COC(c2ccc(C#N)cc2)c2cncn2C)c(-c2cccc(Cl)c2)cc(C#N)c1=O (stereo unspecified) | Protein farnesyltransferase (Homo sapiens, UniProt P49354+P49356) | = | 8.54 |
| Cn1cncc1C(OCc1c(-c2cc(F)ccc2F)cc(C#N)c(=O)n1C)c1ccc(C#N)cc1 (stereo unspecified) | Protein farnesyltransferase (Homo sapiens, UniProt P49354+P49356) | = | 6.96 |
| Cn1cncc1C(OCc1c(-c2ccc(Cl)c(Cl)c2)cc(C#N)c(=O)n1C)c1ccc(C#N)cc1 (stereo unspecified) | Protein farnesyltransferase (Homo sapiens, UniProt P49354+P49356) | = | 7.07 |
| Cn1cncc1C(OCc1c(-c2cc(Cl)cc(Cl)c2)cc(C#N)c(=O)n1C)c1ccc(C#N)cc1 (stereo unspecified) | Protein farnesyltransferase (Homo sapiens, UniProt P49354+P49356) | = | 8.17 |
| Cn1cncc1C(OCc1c(-c2cccc(Cl)c2)cc(C#N)c(=O)n1C)c1ccc(C#N)c(Cl)c1 (stereo unspecified) | Protein farnesyltransferase (Homo sapiens, UniProt P49354+P49356) | = | 7.62 |

All values here come from ChEMBL document CHEMBL1145881.
